target: ATP-dependent translocase ABCB1 (Mus musculus); experiment: Compound was tested for the binding affinity towards recombinant NBD2 C-terminal cytosolic nucleotide-binding domain of mouse P-Glycoprotein
Sequence (P21447 whole entry, the tested form may be a part): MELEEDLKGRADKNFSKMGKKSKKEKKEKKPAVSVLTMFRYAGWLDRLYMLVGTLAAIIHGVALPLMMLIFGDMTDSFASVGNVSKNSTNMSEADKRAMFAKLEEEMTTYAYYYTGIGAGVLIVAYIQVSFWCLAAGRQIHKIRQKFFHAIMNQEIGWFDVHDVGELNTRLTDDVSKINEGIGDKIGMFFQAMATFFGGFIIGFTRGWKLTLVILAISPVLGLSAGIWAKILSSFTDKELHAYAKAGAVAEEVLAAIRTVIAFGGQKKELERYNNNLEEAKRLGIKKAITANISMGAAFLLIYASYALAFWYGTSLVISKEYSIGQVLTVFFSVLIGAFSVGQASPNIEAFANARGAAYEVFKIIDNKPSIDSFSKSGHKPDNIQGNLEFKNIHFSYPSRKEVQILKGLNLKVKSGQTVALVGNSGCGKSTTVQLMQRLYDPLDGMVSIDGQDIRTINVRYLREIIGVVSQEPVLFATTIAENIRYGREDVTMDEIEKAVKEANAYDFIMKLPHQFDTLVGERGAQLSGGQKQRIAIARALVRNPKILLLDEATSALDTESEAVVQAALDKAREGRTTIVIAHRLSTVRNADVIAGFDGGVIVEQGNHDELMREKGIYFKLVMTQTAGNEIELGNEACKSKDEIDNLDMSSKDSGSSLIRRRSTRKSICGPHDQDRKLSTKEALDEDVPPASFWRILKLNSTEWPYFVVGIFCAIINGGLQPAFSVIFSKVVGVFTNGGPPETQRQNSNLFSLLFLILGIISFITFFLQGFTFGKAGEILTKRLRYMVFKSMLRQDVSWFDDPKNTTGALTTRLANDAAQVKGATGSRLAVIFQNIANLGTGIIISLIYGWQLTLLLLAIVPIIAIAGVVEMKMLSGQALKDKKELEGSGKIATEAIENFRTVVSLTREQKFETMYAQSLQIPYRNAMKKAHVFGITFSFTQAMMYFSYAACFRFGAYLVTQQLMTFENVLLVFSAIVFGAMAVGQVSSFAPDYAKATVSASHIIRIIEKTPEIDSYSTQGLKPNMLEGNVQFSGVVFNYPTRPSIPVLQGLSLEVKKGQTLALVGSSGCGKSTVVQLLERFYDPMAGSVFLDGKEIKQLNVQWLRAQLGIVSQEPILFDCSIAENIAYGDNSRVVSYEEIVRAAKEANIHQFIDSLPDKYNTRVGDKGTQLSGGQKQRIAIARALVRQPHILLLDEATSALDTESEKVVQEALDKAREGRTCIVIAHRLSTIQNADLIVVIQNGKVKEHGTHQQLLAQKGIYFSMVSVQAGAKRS
Field: Kd. Provide a value for each of the compounds that follow.
Use nM as the unit, but write only the number.

Query: Kd; subject: COc1ccc(-c2oc3cc(O)cc(O)c3c(=O)c2O)cc1 [KAEMPFERIDE]
4500

Quick one: Kd for COc1cc(C2Oc3cc(-c4oc5c(CC=C(C)C)c(O)cc(O)c5c(=O)c4O)ccc3OC2CO)ccc1O (configuration not stated) ?
250

Endpoint output: Kd of COc1cc(C2Oc3cc([C@H]4Oc5cc(O)cc(O)c5C(=O)[C@@H]4O)ccc3OC2CO)ccc1O (some centres not stated) [SILIBININ] . Value?
6800

Request the reported Kd associated with COc1cc(C2Oc3cc(-c4oc5c(C/C=C(\C)CCC=C(C)C)c(O)cc(O)c5c(=O)c4O)ccc3OC2CO)ccc1O (configuration not stated)
120

Record request: Kd value, item COc1cc(C2Oc3cc(-c4oc5cc(O)c(CC=C(C)C)c(O)c5c(=O)c4O)ccc3OC2CO)ccc1O (configuration not stated)
370

Given the entry O=C1C[C@@H](c2ccc(O)cc2)Oc2cc(O)cc(O)c21 [NARINGENIN] , report its measured Kd.
28500

I have this compound here, COc1cc(C2Oc3cc(-c4oc5cc(O)c(C/C=C(\C)CCC=C(C)C)c(O)c5c(=O)c4O)ccc3OC2CO)ccc1O (configuration not stated) , and I need its recorded Kd.
180
